test: chemical genetic growth profiling, strain panel (AID 1159580);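 also: tested at 20 µM; growth read once vehicle control cultures reached saturation at 30 °C; 1 = growth at the plate median or of vehicle wells; lower values mean less growth of the strain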; conditions: S. cerevisiae deletion strains, growth OD, locus YMR125W, strain sto1, hits give low values
Screen size: about 5,500 compounds; about 2,000 (36%) were called active. Inconclusive results (about 18%) are left out. The list shows a part of the results.
PROPERTY_MEASURED: normalized growth
Respond numerically, and do not add a unit to the figure.

Use the examples below as a reference point.
[
  {
    "MOLECULE": "CC(=O)OCC(=O)[C@@]12OC3(CCCC3)O[C@@H]1CC1C3CCC4=CC(=O)C=C[C@]4(C)[C@@]3(F)[C@@H](O)C[C@@]12C (some centres undefined)",
    "RECORDED_VALUE": 1.03
  },
  {
    "MOLECULE": "COc1cc2c(cc1OC)[C@@]13CCN4CC5=CCOC6CC(=O)N2C1[C@H]6[C@H]5C[C@H]43 (some centres undefined)",
    "RECORDED_VALUE": 0.992
  }
]

Challenge: Returns the measured normalized growth for the input molecule. Input: O=C(OC[C@H]1O[C@H](OC(=O)c2cc(O)c(O)c(OC(=O)c3cc(O)c(O)c(O)c3)c2)[C@H](OC(=O)c2cc(O)c(O)c(OC(=O)c3cc(O)c(O)c(O)c3)c2)[C@@H](OC(=O)c2cc(O)c(O)c(OC(=O)c3cc(O)c(O)c(O)c3)c2)[C@@H]1OC(=O)c1cc(O)c(O)c(OC(=O)c2cc(O)c(O)c(O)c2)c1)c1cc(O)c(O)c(OC(=O)c2cc(O)c(O)c(O)c2)c1
Response given: 1.04

Challenge: Returns the measured normalized growth for the input molecule. Input: NC(=O)NO
Response given: 1.02

Challenge: Returns the measured normalized growth for the input molecule. Input: CC1(C)S[C@@H]2[C@H](NC(=O)Cc3ccccc3)C(=O)N2[C@H]1C(=O)O
Response given: 1.06

Challenge: Returns the measured normalized growth for the input molecule. Input: CC1=C(O)C(=O)C=C2C1=CC=C1[C@@]2(C)CC[C@@]2(C)[C@@H]3C[C@](C)(C(=O)O)CC[C@]3(C)CC[C@]12C
Response given: 0.827

----------
experiment: chemical genetic growth profiling, strain panel (AID 1159580);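 also: tested at 20 µM; growth read once vehicle control cultures reached saturation at 30 °C; 1 = growth at the plate median or of vehicle wells; lower values mean less growth of the strain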; details: S. cerevisiae deletion strains, growth OD, locus YLR058C, strain SHM2 (second series), hits give low values
About 2,000 (36%) of roughly 5,500 compounds were called active. Inconclusive results (about 18%) are left out. The list shows a part of the results.
Overview of recorded normalized growth for various compounds

Use the examples below as a reference point.
[
  {
    "COMPOUND": "C=CCn1c(COc2c(Br)cc(C)c3c2CCC3)n[nH]c1=S",
    "normalized growth": "0.991 (inactive)"
  },
  {
    "COMPOUND": "O=C(COC(=O)c1ccccc1C(=O)c1ccccc1)c1ccccc1",
    "normalized growth": "0.984 (inactive)"
  },
  {
    "COMPOUND": "Cc1cc(C)cc(N2C(=O)CC(Sc3ccccc3C(=O)O)C2=O)c1 (configuration not stated)",
    "normalized growth": "0.995 (inactive)"
  }
]

Challenge: Returns the measured normalized growth for the input compound. Input: CC(C)(C)c1cc(-c2cc(C(F)(F)F)[nH]n2)c2c(c1)C(C)(C)CC2
Response given: 1.01 (inactive)

Challenge: Returns the measured normalized growth for the input compound. Input: Cc1cccc(C(=O)c2ccccc2C(=O)O)c1
Response given: 1.01 (inactive)

Challenge: Returns the measured normalized growth for the input compound. Input: COc1cc([N+](=O)[O-])ccc1N1CCCC1
Response given: 0.929 (active)

Challenge: Returns the measured normalized growth for the input compound. Input: O=C1CC2(CCCC2)C(=O)N1CCNc1nccc(C(F)(F)F)n1
Response given: 0.975 (inactive)
